This listing pairs molecules with measured z-score.
- protocol description: CREB reporter modulators without forskolin, primary screen, cell-based, PC12, CRE-LacZ reporter, unstimulated (AID 1145)
- cond: no forskolin, luminescence, 4.5 h, higher = more signal, called active from +8 up or from −8 down
readout kind: z-score

>>> quantitative_readout("C=CCOC(=O)[C@H]1[C@@H]2C(=O)O[C@@H](c3ccccc3)[C@@H](c3ccccc3)N2[C@@H](c2ccc(OCCOC(=O)[C@@H]3C[C@@H]4C(=O)N5CCC[C@H]5C(=O)N4[C@@H]3c3ccc(O)cc3)cc2)[C@]12C(=O)Nc1ccc(I)cc12")
0.423
>>> quantitative_readout("COCCCNC(=O)[C@@]1(Sc2ccc(C)cc2)CC(=O)N(C2CCCCC2)[C@@H]1c1ccc(CO)cc1")
0.118
>>> quantitative_readout("COCCOC(=O)N1C(=O)[C@@]2(c3cc(C#Cc4ccc(OC)cc4)ccc31)[C@H](c1ccccc1OCCO)N1[C@H](c3ccccc3)[C@H](c3ccccc3)OC(=O)[C@H]1[C@@H]2C(=O)N1CCCCCCC1")
-1.42
>>> quantitative_readout("Cc1ccc(S[C@]2(C(=O)NCCCN(C)C)CC(=O)N(C3CCCCC3)[C@@H]2c2ccc(CO)cc2)cc1")
0.0279
>>> quantitative_readout("COCCOC(=O)N1C(=O)[C@@]2(c3cc(C#Cc4ccc(OC)cc4)ccc31)[C@H](C(=O)Nc1nc3ccccc3s1)[C@H]1C(=O)O[C@H](c3ccccc3)[C@H](c3ccccc3)N1[C@@H]2c1ccc(O)cc1")
-1.83

###

This listing pairs compounds with measured composite z-score.
- target or system: Focal adhesion kinase 1 (Homo sapiens)
- protocol description: small-molecule microarray binders of FAK, primary screen, biochemical, 635/667 nm fluorescence, BSA, DTT (AID 1130);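 also: composite of spot emission at 667 nm and signal to noise over triplicate slides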
- cond: PTK2 binding, 635 nm fluorescence, higher = more signal
readout kind: composite z-score

>>> quantitative_readout("[N-]=[N+]=NCc1ccccc1[C@H]1OC(c2ccc(OCCCO)cc2)=N[C@@]1(CCS(=O)(=O)c1ccccc1)C(=O)N1CCCCC1")
1.12
>>> quantitative_readout("NC(=O)NCC#Cc1ccc2c(c1)[C@]1(C(=O)N2)[C@H](C(=O)NC[C@H](O)c2ccccc2)[C@H]2C(=O)O[C@H](c3ccccc3)[C@H](c3ccccc3)N2[C@@H]1c1ccc(OCCO)cc1")
-0.0193
>>> quantitative_readout("CCCCC(=C=CC[C@@H](O)c1ccccc1OCCO)C[C@@H](O)COCc1ccccc1")
0.577
>>> quantitative_readout("[N-]=[N+]=Nc1ccccc1[C@H]1OC(c2ccc(OCCCO)cc2)=N[C@@]1(Cc1ccccc1)C(=O)N1CCCCC1")
0.724

###

This listing pairs compounds with measured z-score.
- protocol description: CREB reporter modulators without forskolin, primary screen, cell-based, PC12, CRE-LacZ reporter, unstimulated (AID 1145)
- cond: no forskolin, luminescence, 4.5 h, higher = more signal, called active from +8 up or from −8 down
Activity calls are given as the source filed them.
readout kind: z-score

>>> result("CO[C@H]1O[C@H](CO)[C@@H](OC(=O)Nc2ccccc2-c2ccccc2)[C@H](OC(=O)Nc2ccc3c(c2)OCO3)[C@H]1OC(=O)Nc1ccc2c(c1)OCO2")
"0.792 (inactive)"
>>> result("C=CC1c2cc(O)c(OC)cc2CCN1Cc1cc2c(cc1Br)OCO2 (configuration not stated)")
"0.299 (inactive)"
>>> result("CCCCCCCCCCC(O)C1C=CC2C(=O)N(C)C(=O)C2N1NC(=O)OC(C)(C)C (configuration not stated)")
"0.632 (inactive)"
>>> result("CC1=C([C@H](O)CCc2ccccc2)[C@H](CO)[C@@H]2C(=O)N(C)C(=O)[C@@H]2C1")
"-0.321 (inactive)"
>>> result("CCCCCCCCCCC(O)C1C=CC2C(=O)N(C)C(=O)C2N1Nc1ccc([N+](=O)[O-])cc1[N+](=O)[O-] (configuration not stated)")
"0.44 (inactive)"
>>> result("COCCOC(=O)N1C(=O)[C@@]2(c3ccccc31)[C@H](C(=O)N1CCN(c3ncccn3)CC1)[C@H]1C(=O)O[C@H](c3ccccc3)[C@H](c3ccccc3)N1[C@@H]2c1ccc(O)cc1")
"0.631 (inactive)"
>>> result("Cc1ccc(S[C@]2(C(=O)O)CC(=O)N(Cc3ccccc3Cl)[C@@H]2c2ccc(CO)cc2I)cc1")
"1.2 (inactive)"
